Source listed as patent US8080529B2.

test system: IL-6; test: Inhibition of IL-6 production by stimulated human peripheral blood leukocytes in vitro; type: cell-based; details: Homo sapiens, Leukocyte, 50 μM; PMA-stimulated PBL; read-out: Percentage of inhibition of IL-6 production
inhibition at 50 µM for assorted molecules
Give the value, in units of %, as a plain number.

[
  {
    "MOLECULE": "CC[C@H]1OC(=O)[C@H](C)[C@@H](O[C@H]2C[C@@](C)(OC)[C@@H](OCCCN(CC)CC)[C@H](C)O2)[C@H](C)[C@@H](O[C@@H]2O[C@H](C)C[C@H](N(C)C)[C@H]2O)[C@](C)(O)C[C@@H](C)CN(C)[C@H](C)[C@@H](O)[C@]1(C)O",
    "inhibition at 50 µM / %": 64
  }
]

Input line: Name the reported inhibition at 50 µM value associated with the molecule CC[C@H]1OC(=O)[C@H](C)[C@@H](O[C@H]2C[C@@](C)(OC)[C@@H](OC(=O)CCN(CC)CC)[C@H](C)O2)[C@H](C)[C@@H](O[C@@H]2O[C@H](C)C[C@H](N(C)C)[C@H]2O)[C@](C)(O)C[C@@H](C)CN(C)[C@H](C)[C@@H](O)[C@]1(C)O
Output line: 84
